Molecular target: human V2 receptor (Homo sapiens, UniProt P30518)
Sequence (P30518 whole entry): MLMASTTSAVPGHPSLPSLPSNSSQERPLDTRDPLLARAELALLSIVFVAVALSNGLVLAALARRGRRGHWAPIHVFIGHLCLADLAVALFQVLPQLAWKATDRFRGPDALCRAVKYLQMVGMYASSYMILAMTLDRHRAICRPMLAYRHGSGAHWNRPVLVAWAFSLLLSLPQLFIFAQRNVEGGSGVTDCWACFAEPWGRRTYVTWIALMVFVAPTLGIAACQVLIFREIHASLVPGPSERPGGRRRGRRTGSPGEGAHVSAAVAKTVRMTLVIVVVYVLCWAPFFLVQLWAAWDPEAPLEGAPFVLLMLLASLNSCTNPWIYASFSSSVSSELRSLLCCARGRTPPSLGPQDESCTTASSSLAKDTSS
Assay: Cellular in vitro assay for determining vasopressin receptor activity (V2 cell line, CRE-luciferase)
Conditions: CHO cell line transfected with the human V2 receptor; agonist [Arg8]-vasopressin at EC50 concentration; 3 hours incubation; read-out: IC50 hV2
Just a reminder that ties go to criterion not met: only IC50 strictly below 60 nM counts as criterion met.

Compound	Measured On	Group
NC(=O)c1nc(Cn2nc(-c3ccc(Cl)cc3)n(C[C@H](O)C(F)(F)F)c2=O)nn1-c1c(Cl)cccc1Cl [Example 22]	human V2 receptor (Homo sapiens, UniProt P30518)	criterion met
COC(=O)c1cccnc1-n1nc(Cn2nc(-c3ccc(Cl)cc3)n(C[C@H](O)C(F)(F)F)c2=O)nc1C(N)=O [Example 7]	human V2 receptor (Homo sapiens, UniProt P30518)	criterion not met
NC(=O)c1nc(Cn2nc(-c3ccc(Cl)cc3)n(C[C@H](O)C(F)(F)F)c2=O)nn1-c1ccccc1Cl [Example 35]	human V2 receptor (Homo sapiens, UniProt P30518)	criterion met
NC(=O)c1nc(Cn2nc(-c3ccc(Cl)cc3)n(C[C@H](O)C(F)(F)F)c2=O)nn1-c1cccnc1Cl [Example 10]	human V2 receptor (Homo sapiens, UniProt P30518)	criterion not met
CC(C)c1ccccc1-n1nc(Cn2nc(-c3ccc(Cl)cc3)n(C[C@H](O)C(F)(F)F)c2=O)nc1C(N)=O [Example 28]	human V2 receptor (Homo sapiens, UniProt P30518)	criterion not met
